system_name: MEK5 PB1 domain binding to MEKK2 (MAP3K2) mutant PB1, human
experiment: mutant MEKK2 PB1-MEK5 interaction blockers – biochemical, bead multiplex flow cytometry, dose response (AID 1895)
test_settings: Bead-based multiplex flow cytometry
Active and inactive are the calls of the source. No rule for the calls is given here.
Form entry, call: pick from active, inactive

// below: answered compounds
CCCCCc1cc(=O)oc2c(C(CCN3CCCCC3)c3ccc4c(c3)OCO4)c(OC)cc(OC)c12 (centres undefined)
inactive
CCN1CCN(Cc2ccc(NC(=O)c3cc(NC(=O)c4cnn(-c5ccccc5)c4N)cc(OC)c3)cc2C(F)(F)F)CC1
inactive
CCCCCCCCCCOC(=O)Cn1c(COc2ccccc2)[n+](C)c2ccccc21
active
FC(F)(F)c1cccc(NC(=S)N(CCCN2CCCC2)Cc2cccn2Cc2ccc(Cl)cc2)c1
active
CN(C)CCCNc1cc(C(C)(C)C)nc2c(-c3ccc(Cl)cc3)cnn12
inactive
CCN1CCN(Cc2ccc(NC(=O)c3cc(NC(=O)C(=O)c4c[nH]c5ccccc45)cc(OC)c3)cc2C(F)(F)F)CC1
active

Incoming: How was CCN(CC)CCOC(=O)c1ccc(N/C=C(/C#N)c2nc(-c3ccc(OC)cc3)cs2)cc1 classified in this test?
Outgoing: inactive

Incoming: Lab log entry: COc1ccc(CSc2n[nH]c(C)n2)cc1[N+](=O)[O-] — outcome as called in the assay?
Outgoing: inactive

Incoming: // return assay outcome for CCCCCCCCCCOC(=O)Cn1c(COc2ccccc2C)[n+](C)c2ccccc21
Outgoing: active
